Test: CNS penetration, single compound oral or intravenous administration, brain and plasma by LC-MS/MS
Format: in vivo, C57B16/J mice
Details: C57B16/J, brain and plasma, 1 mg/kg; mouse; iv, single compound; AUC0-24h; read-out: CNS penetration: total brain to plasma ratio AUC0-24h iv
Method: To assess pharmacokinetic properties and CNS penetration of compounds, compounds were administered to mice via the oral and intravenous routes. For oral dosing, compound solutions were prepared in a suitable vehicle (such as 10% PEG400/5% Kolliphor EL/85% H2O) at a concentration of 0.5mg/mL. […] Supernatents were analysed by LC-MS/MS. […] To establish CNS penetration, the ratio of the concentration of each compound in the […] was assessed.
propertyLabel: Kp
Answers are plain numbers.

Enquiry: Value lookup for Kp; key = O=C(Nc1ccc(OC(F)(F)F)cc1)Nc1cccnc1Oc1ccccc1C1(C(F)(F)F)CCO1 (stereo not shown)
Return: 2.1
